measurement_target: T1, EGFR-L858R (Homo sapiens, UniProt P00533, L858R)
T1 construct: with the advantage of testing full-length integral membrane proteins; (GGGGS)2 linker-Cub (human ubiquitin aa 35-76)-GAL4(1-147)-mNFkB(364-550) (C); expressed in transfected cells
assay_procedure: MaMTH EGFR-interactor screen, lentiviral preys against EGFR-L858R bait (interaction score)
Format: cell-based
study_conditions: MaMTH interaction score of prey with EGFR-L858R bait
property_measured: EGFR-L858R mean
Enter a number only.

get_value(item= LAT (protein, UniProt O43561 1-262, looked up) Linker for activation of …: MEEAILVPCVLGLLLLPILAMLMALCVHCHRLPGSYDSTSSDSLYPRGIQFKRPHTVAPWPPAYPPVTSYPPLSQPDLLPIPRSPQPLGGSHRTPSSRRDSDGANSVASYENEGASGIRGAQAGWGVWGPSWTRLTPVSLPPEPACEDADEDEDDYHNPGYLVVLPDSTPATSTAAPSAPALSTPGIRDSAFSMESIDDYVNVPESGESAEASLDGSREYVNVSQELHPGAAKTEPAALSSQEAEEVEEEGAPDYENLQELN , readout=EGFR-L858R mean) returns 18.39
